system: U251 CNS; experiment: NCI tumour cell line growth inhibition, 48 h
TGI values, listed per item

[
  {
    "compound": "O=C1CNc2cc(N3CCOCC3)ccc2N1",
    "TGI": "> 100 µM"
  }
]

Query :: Dear colleague, I am looking for the recorded TGI of the following compound: `O=C1NC(=S)N/C1=C\c1ccc(Cl)cc1`
Result :: > 100 µM

Query :: # TGI lookup, item Clc1cc2nc(C3CCCCO3)[nH]c2cc1Cl (configuration not stated)
Result :: > 96.7 µM

====

system: OVCAR-3 ovarian; experiment: NCI tumour cell line growth inhibition, 48 h; in the data active means GI50 below about 0.43 µM; inactive means the rest
# valid calls are y for active, n for inactive; nothing else

Here are 5 molecules together with their reported answers.
[
  {
    "molecule": "COc1ccc(/C(=C/c2ccc3ccccc3c2)c2nn[nH]n2)cc1OC",
    "discrete.label": "n"
  },
  {
    "molecule": "Cc1ccc(/C=C(/C#N)n2nnc3ncccc32)cc1",
    "discrete.label": "n"
  },
  {
    "molecule": "Cc1cc(O[C@@H]2O[C@@H](C)[C@H](O)[C@@H](O)[C@H]2O)c2c3c(c(O[C@@H]4O[C@@H](C)[C@H](O)[C@@H](O)[C@H]4O)cc2c1)C(=O)c1c(O)cccc1C3=O",
    "discrete.label": "n"
  },
  {
    "molecule": "CCC[CH2][Sn]1([CH2]CCC)[O]C(=O)CN=C(C)c2ccccc2[O]1",
    "discrete.label": "n"
  },
  {
    "molecule": "COc1ccc(C2CC(c3ccccc3)=NN2C(=O)c2cc(OC)c(OC)c(OC)c2)cc1O (centres undefined)",
    "discrete.label": "y"
  }
]

Query :: Hey, what did the test say about `Clc1ccc(-c2nc3c(-c4ccccc4)nc(-c4ccccc4)cn3c2-c2ccc(Cl)cc2)cc1` ?
Result :: n

Query :: I would be grateful if you could indicate the recorded call for `O=c1c2cccc(F)c2sc2c(NCCCNCCO)nc3ccccc3c12` .
Result :: n

Query :: Recorded test call requested for `C[C@]12CCCN1CC1=NNC(=O)c3cc(F)cc4[nH]c2c1c34`
Result :: n

Query :: // return assay outcome for CC(=O)NC(CS)C(=O)O (centres undefined)
Result :: n

Query :: Recorded test call requested for `CCNC(=O)Oc1ccc(/C(=C(\C)c2ccc(Cl)cc2)c2ccc(OCCN(CC)CC)cc2)cc1`
Result :: n

Query :: Please indicate how the test categorized `CCC(CC)c1cc(N[C@H]2CC[C@H](N)C2)n2nccc2n1` .
Result :: n

Query :: Given Nc1nc(=S)c2ncn(C3OC(CO)C(O)C3O)c2[nH]1 (centres undefined) , state the outcome it received in this test.
Result :: n

Query :: Test call for this molecule, please: `CS(=O)(=O)c1ccc2c(c1)C(=O)c1c-2n(CCCBr)c(=O)c2cc([N+](=O)[O-])ccc12`
Result :: n

Query :: Please indicate how the test categorized `COc1cc(-c2cc(-c3cccs3)c(C#N)c(N3CCOCC3)n2)cc(OC)c1OC` .
Result :: n

Query :: Write down the call the test reported for this molecule. Item: COc1ccc2nc3cc(Cl)ccc3c(NCCNCC(O)CO)c2c1 (centres undefined)
Result :: n

Query :: Fill in: this test's call for CC(C)(C)[Si](C)(C)OC1[C@@H](O[Si](C)(C)C(C)(C)C)[C@@H](CNC(=O)NC(=O)NC(=O)CCl)O[C@H]1n1cnc2c(NC(=O)Nc3ccccc3)ncnc21 (some centres undefined) is ___
Result :: n

Query :: Kindly provide the recorded test outcome for the following molecule: `COc1ccc(N=N/C(=N\NC(=O)c2cc(Br)ccc2O)c2ccc(N(CCC#N)CCC#N)cc2OC)cc1`
Result :: n

Query :: Short answer needed: outcome of this test for CC(=O)OC1CC2C(C)(C)CCC[C@]2(C)C2=C1C(O)=C(C(C)C)C(=O)C2=O (some centres undefined) ?
Result :: n

Query :: Outcome? `Cc1cc2c(C(=O)NCC#N)cccc2n1-c1nc2c(c(NCc3ccccc3)n1)CCCC2`
Result :: y

These entries and their values trace back to PubChem BioAssay (NCI).
